Reported IC50 values follow for various compounds
target: human butyrylcholinesterase (hBChE) (Homo sapiens, UniProt P06276); construct: Human plasma BChE (EC 3.1.1.8); purchased Sigma-Aldrich; host or cells: human plasma; assay: biochemical; details: BChE from human plasma; mean of three independent measurements ± SEM
Sequence (P06276 29-602): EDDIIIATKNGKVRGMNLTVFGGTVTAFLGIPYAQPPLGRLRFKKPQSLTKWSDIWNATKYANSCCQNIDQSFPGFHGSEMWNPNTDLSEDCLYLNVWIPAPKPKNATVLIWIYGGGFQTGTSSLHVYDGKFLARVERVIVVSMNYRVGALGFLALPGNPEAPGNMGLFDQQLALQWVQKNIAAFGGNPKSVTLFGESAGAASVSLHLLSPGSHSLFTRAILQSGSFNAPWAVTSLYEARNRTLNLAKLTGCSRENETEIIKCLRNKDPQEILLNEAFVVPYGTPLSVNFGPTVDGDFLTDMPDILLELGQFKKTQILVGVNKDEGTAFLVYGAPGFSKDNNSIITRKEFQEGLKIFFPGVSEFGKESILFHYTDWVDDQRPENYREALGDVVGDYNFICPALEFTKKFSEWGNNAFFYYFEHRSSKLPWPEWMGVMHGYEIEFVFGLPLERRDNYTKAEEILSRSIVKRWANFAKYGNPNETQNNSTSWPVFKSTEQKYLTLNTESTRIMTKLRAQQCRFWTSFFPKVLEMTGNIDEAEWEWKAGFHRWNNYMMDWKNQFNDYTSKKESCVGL
outcome measure: IC50

| compound | result |
| --- | --- |
| COc1cc2oc(-c3ccc(NCCCCCCCNc4c5c(nc6cc(Cl)ccc46)CCCC5)cc3)cc(=O)c2c(OC)c1OC [Compound K1388] | 2810 nM |
| COc1cc2oc(-c3ccc(NCCCNc4c5c(nc6cc(Cl)ccc46)CCCC5)cc3)cc(=O)c2c(OC)c1OC [Compound K1384] | 174 nM |
| COc1cc2oc(-c3ccc(NCCCCCCCCNc4c5c(nc6cc(Cl)ccc46)CCCC5)cc3)cc(=O)c2c(OC)c1OC [Compound K1389] | 2210 nM |
